system: HCC-2998 colon; assay: NCI-60 one-dose screen, 48 h; conditions: 10 µM unless noted
Compounds without any hit were thinned out: in the full panel of roughly 83,000, 20% have a hit. The source made the active and inactive calls. Rule for the calls: active = growth percent below 10; inactive = the rest.
Form entry, call: pick from TRUE for active, FALSE for inactive

Here's what some known entries look like.
compound: CCn1c2ccccc2c2cc(C(O)c3cccc4ncccc34)ccc21 (centres undefined)
assigned class: TRUE
--
compound: O=C(CN1C(=O)c2ccccc2S1(=O)=O)Nc1nc(-c2cc3ccccc3oc2=O)cs1
assigned class: FALSE
--
compound: CC1=C(C(=O)c2ccccc2)C(c2ccc3c(c2)OCO3)NC(=S)N1 (centres undefined)
assigned class: FALSE
--
compound: Cc1nc2c(c(-c3ccccc3)n1)Cc1c(ccc3ccccc13)O2
assigned class: FALSE
--
compound: c1ccc(-c2nc(N3CCNCC3)c3oc(-c4ccccc4)nc3n2)cc1
assigned class: TRUE

Request: Hi, do you know how COc1ccc(C2=NN(C=O)C(c3ccc(Oc4nc5c(c(=O)n(C)c(=O)n5C)n4C)c(OC)c3)C2)cc1 (centres undefined) came out in this test?
Result: FALSE

Request: Hi, do you know how `COc1cccc(-c2cc(-c3ccc(Nc4nc(Nc5ccc(Cl)cc5)nc(Nc5ccc(Cl)cc5)n4)cc3)nc(N)c2C#N)c1` came out in this test?
Result: TRUE

Request: Hi, do you know how `COc1ccc(NC(=O)CSc2oc(-c3ccccc3)nc2S(=O)(=O)c2ccc(Cl)cc2)c(OC)c1` came out in this test?
Result: FALSE

Request: Hi, do you know how `COc1ccc(S(=O)(=O)N(C)c2oc(-c3ccc(Cl)cc3)nc2C#N)cc1` came out in this test?
Result: FALSE

###

system: U251 CNS; assay: NCI-60 one-dose screen, 48 h (100 = growth as untreated, 0 = no growth, -100 = all killed); conditions: 10 µM unless noted
Compounds without any hit were thinned out: in the full panel of roughly 83,000, 20% have a hit.
value kind: growth (%)
The reply should be a number in %, with the unit left off.

Below, each entry is followed by its recorded growth result.
compound: COc1cccc(-c2cc(-c3ccc(Nc4nc(Nc5ccc(Cl)cc5)nc(Nc5ccc(Cl)cc5)n4)cc3)nc(N)c2C#N)c1
growth, %: 3.83
--
compound: N#C/C(=N\Nc1ccccc1)C(=O)Nc1cc(-c2ccccc2)nn1-c1ccccc1
growth, %: 8.34
--
compound: C=C1CC[C@@H]2[C@](C)(COC(C)=O)[C@H](OC(C)=O)CC[C@@]2(C)[C@@H]1CC(Nc1ccc(S(=O)(=O)Nc2nccc(C)n2)cc1)C1=CCOC1=O (stereo partly drawn)
growth, %: 14.6

So for `O=C1N/C(=N/N=C(c2ccccc2)c2ccccc2)S/C1=C\c1ccc(Br)cc1` , the logged growth turned out to be 91.3

So for Cc1ccc(C2=Nc3c(N)nc(N)nc3NC(c3cccc(Nc4ccnc5cc(C(F)(F)F)ccc45)c3)C2)cc1 (stereo not drawn) , the logged growth turned out to be 12.8

So for `C#CCOc1cccc(Nc2c(Cl)c(CCl)nc3ccc(Oc4ccccc4)cc23)c1` , the logged growth turned out to be 24.9

So for `c1ccc(-c2nc(N3CCNCC3)c3oc(-c4ccccc4)nc3n2)cc1` , the logged growth turned out to be -57

So for `COc1ccc(/C=C2/CCc3cc4ccc(OC)cc4[o+]c32)c(O)c1` , the logged growth turned out to be 69.4
